Biological target: WT SULT1E1 (Homo sapiens, UniProt P49888)
Construct: E. coli codon-optimized SULT1E1 coding region inserted into the PreScission Protease cleavage site; His/GST/MBP triple tag (N, cleaved yes); made in house; host or cells: E. coli BL21(DE3)
Sequence (P49888 1-294): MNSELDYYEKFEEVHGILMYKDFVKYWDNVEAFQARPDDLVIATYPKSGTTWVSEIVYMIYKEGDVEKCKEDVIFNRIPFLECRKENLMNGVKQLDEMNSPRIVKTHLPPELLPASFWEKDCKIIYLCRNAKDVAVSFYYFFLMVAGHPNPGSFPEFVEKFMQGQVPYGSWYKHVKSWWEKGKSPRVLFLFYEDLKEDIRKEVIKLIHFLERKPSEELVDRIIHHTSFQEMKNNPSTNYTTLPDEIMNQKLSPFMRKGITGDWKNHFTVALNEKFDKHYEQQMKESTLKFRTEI
Assay: Initial-rate studies (1-HP sulfonation; OH-PCB inhibition), WT enzyme
Format: biochemical
Conditions: WT SULT1E1; Table 1; parentheses = one SD; read-out: Ki OH-PCB1
EXPERIMENTAL_READOUT: Ki (nM)
Give the value in nM but do not write nM after it.

Ki reading for Oc1ccc(-c2c(Cl)cccc2Cl)cc1 [OH-PCB1, 4ʹ-OH-2,6-dichlorobiphenol] : 60

---

Biological target: SULT1E1 F80A (Homo sapiens, UniProt P49888, F80A)
Construct: E. coli codon-optimized SULT1E1 coding region inserted into the PreScission Protease cleavage site; His/GST/MBP triple tag (N, cleaved yes)
Sequence (P49888 1-294 F80A): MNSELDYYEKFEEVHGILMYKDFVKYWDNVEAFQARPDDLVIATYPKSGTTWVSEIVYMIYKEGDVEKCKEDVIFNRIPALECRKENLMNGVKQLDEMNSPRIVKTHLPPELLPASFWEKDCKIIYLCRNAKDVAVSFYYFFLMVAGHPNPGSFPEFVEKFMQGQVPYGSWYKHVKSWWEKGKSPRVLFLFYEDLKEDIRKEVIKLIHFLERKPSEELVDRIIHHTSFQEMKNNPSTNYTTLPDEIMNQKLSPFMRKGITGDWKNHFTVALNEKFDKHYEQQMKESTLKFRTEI
Experiment: Initial-rate studies (1-HP sulfonation; OH-PCB1 inhibition), F80A mutant
Details: noncompetitive inhibition model, parentheses = one SD
EXPERIMENTAL_READOUT: pKi
Recall that pKi is obtained by taking minus log10 of the concentration measured in molar.

pKi reading for Oc1ccc(-c2c(Cl)cccc2Cl)cc1 : 6.14

---

Molecular target: SULT1E1 Y239A (Homo sapiens, UniProt P49888, Y239A)
Construct: E. coli codon-optimized SULT1E1 coding region inserted into the PreScission Protease cleavage site; His/GST/MBP triple tag (N, cleaved yes)
Sequence (P49888 1-294 Y239A): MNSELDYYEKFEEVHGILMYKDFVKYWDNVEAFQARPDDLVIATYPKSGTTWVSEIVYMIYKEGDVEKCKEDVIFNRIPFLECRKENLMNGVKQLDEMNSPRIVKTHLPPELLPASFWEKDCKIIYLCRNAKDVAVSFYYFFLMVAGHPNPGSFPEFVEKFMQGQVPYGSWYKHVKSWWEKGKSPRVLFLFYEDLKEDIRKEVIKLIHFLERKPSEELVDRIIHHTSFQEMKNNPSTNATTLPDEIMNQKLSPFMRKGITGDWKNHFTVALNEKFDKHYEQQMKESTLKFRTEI
Assay: Initial-rate studies (1-HP sulfonation; OH-PCB1 inhibition), Y239A mutant
Conditions: noncompetitive inhibition model, parentheses = one SD
EXPERIMENTAL_READOUT: Ki (nM)
Give the value in nM but do not write nM after it.

Ki reading for Oc1ccc(-c2c(Cl)cccc2Cl)cc1 [OH-PCB1, 4ʹ-OH-2,6-dichlorobiphenol] : 340

The values you see were collected from paper PMC7949139.
